B1: CLINT1 (parent)
chain: VVTSAREHIYDLRSLENYHFVDEH

Variants of: B1
Measurement notes: protein stability index of a GFP-peptide fusion (GPS, HEK-293T) (PSI 1-6); higher = more stable;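 also: lentivirally expressed fusions sorted by FACS into six bins by GFP to DsRed ratio, PSI derived from sequencing read proportions per bin multiplied by bin number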
Measurement context: c terminus: a fixed tail appended
Property measured: protein stability index
I'd appreciate a reply containing only the number, no unit.

Q: Find the measured protein stability index of H19L and report it.
Result: 2.68

Q: Give protein stability index for the following variant: L12I
Result: 2.89

Q: // fetch protein stability index given entry R6E
Result: 3.87
